Recorded Mean accuracy (%), Table S8, one value per entry.
Test: Autosampler stability at 4 °C of extracted antibiotic-spiked plasma/CAMHB samples
Settings: CAMHB extracted samples, 7 h autosampler 4 °C; MQC (nominal as E14)
Give your result in % as a bare value.

See these solved cases before continuing.
MOLECULE_SMILES: C[C@@H](O)[C@H]1C(=O)N2C(C(=O)O)=C(S[C@@H]3CN[C@H](C(=O)N(C)C)C3)[C@H](C)[C@H]12
Mean accuracy (%), Table S8: 102.6
//
MOLECULE_SMILES: CC(C)(O/N=C(\C(=O)N[C@@H]1C(=O)N2C(C(=O)[O-])=C(C[n+]3ccccc3)CS[C@H]12)c1csc(N)n1)C(=O)O
Mean accuracy (%), Table S8: 109.0

# input for lookup
# input Give the measured Mean accuracy (%), Table S8 of C[C@]1(Cn2ccnn2)[C@H](C(=O)O)N2C(=O)C[C@H]2S1(=O)=O .
# output 107.5

====

Experiment: Long-term storage stability of antibiotics in combination with fosfomycin spiked in plasma/CAMHB (−30 °C, −80 °C)
Type: physicochemical
Conditions: CAMHB, combination with fosfomycin, 4 weeks at -80 °C; HQC (nominal as E15)
Property: Mean accuracy (%), Table S18; scope: individual molecules
Note: unit % is implicit; provide only the numeric part.

MOLECULE_SMILES: C[C@H]1[C@H](NC(=O)/C(=N\OC(C)(C)C(=O)O)c2csc(N)n2)C(=O)N1S(=O)(=O)O
MEASURED_NUMBER: 98.4
//
MOLECULE_SMILES: CCN1CCN(C(=O)N[C@@H](C(=O)N[C@@H]2C(=O)N3[C@@H]2SC(C)(C)[C@@H]3C(=O)O)c2ccccc2)C(=O)C1=O
MEASURED_NUMBER: 87.6
//
MOLECULE_SMILES: Cn1c(N)c(NC(=O)NCCN)c[n+]1CC1=C(C(=O)O)N2C(=O)[C@@H](NC(=O)/C(=N\OC(C)(C)C(=O)[O-])c3nsc(N)n3)[C@H]2SC1
MEASURED_NUMBER: 93.9
//
MOLECULE_SMILES: C[C@@H]1O[C@@H]1P(=O)(O)O
MEASURED_NUMBER: 101.8
//
MOLECULE_SMILES: NC(=O)[C@@H]1CC[C@@H]2CN1C(=O)N2OS(=O)(=O)O
MEASURED_NUMBER: 98.6

# input Fill blank: measured Mean accuracy (%), Table S18 of the molecule CC(C)(O/N=C(\C(=O)N[C@@H]1C(=O)N2C(C(=O)[O-])=C(C[n+]3ccccc3)CS[C@H]12)c1csc(N)n1)C(=O)O is ____.
# output 103.8

====

Experiment: Autosampler stability at 4 °C of extracted antibiotic-spiked plasma/CAMHB samples
Details: plasma extracted samples, 15 h autosampler 4 °C; LQC (nominal as E13)
// Mean accuracy (%), Table S9 lookup, one value per entry
Give the value in % but do not write % after it.

MOLECULE_SMILES: NC(=O)[C@@H]1CC[C@@H]2CN1C(=O)N2OS(=O)(=O)O
Mean accuracy (%), Table S9: 103.4

# input # Mean accuracy (%), Table S9 lookup, item CC(C)(O/N=C(\C(=O)N[C@@H]1C(=O)N2C(C(=O)[O-])=C(C[n+]3ccccc3)CS[C@H]12)c1csc(N)n1)C(=O)O
# output 93.8

# input Recorded Mean accuracy (%), Table S9 for CN(C)c1cc(NC(=O)CNC(C)(C)C)c(O)c2c1C[C@H]1C[C@H]3[C@H](N(C)C)C(O)=C(C(N)=O)C(=O)[C@@]3(O)C(O)=C1C2=O , please?
# output 105.1

====

Experiment: Long-term storage stability of antibiotics in combination with fosfomycin spiked in plasma/CAMHB (−30 °C, −80 °C)
Assay type: physicochemical
Conditions: CAMHB, combination with fosfomycin, 2 weeks at -30 °C; LQC (nominal as E13)
RECORDED_METRIC: Mean accuracy (%), Table S15
Numbers only; they are read as %.

Known Mean accuracy (%), Table S15 results, listed for orientation:
MOLECULE_SMILES: C[C@]1(Cn2ccnn2)[C@H](C(=O)O)N2C(=O)C[C@H]2S1(=O)=O
Mean accuracy (%), Table S15: 93.8

MOLECULE_SMILES: C[C@@H]1O[C@@H]1P(=O)(O)O
Mean accuracy (%), Table S15: 103.1

MOLECULE_SMILES: C[C@H]1[C@H](NC(=O)/C(=N\OC(C)(C)C(=O)O)c2csc(N)n2)C(=O)N1S(=O)(=O)O
Mean accuracy (%), Table S15: 102.2

// below: Mean accuracy (%), Table S15 requested for another compound
# input What value of Mean accuracy (%), Table S15 has been reported for the following compound? CCN1CCN(C(=O)N[C@@H](C(=O)N[C@@H]2C(=O)N3[C@@H]2SC(C)(C)[C@@H]3C(=O)O)c2ccccc2)C(=O)C1=O
# output 106.0

====

Assay: Long-term storage stability of antibiotics in combination with fosfomycin spiked in plasma/CAMHB (−30 °C, −80 °C)
Format: physicochemical
Settings: plasma, combination with fosfomycin, 4 weeks at -30 °C; MQC (nominal as E14)
Parameter Mean accuracy (%), Table S12: see the listing below.
Number only, in %; omit the unit.

MOLECULE_SMILES: C[C@@H](O)[C@H]1C(=O)N2C(C(=O)O)=C(S[C@@H]3CN[C@H](CNS(N)(=O)=O)C3)[C@H](C)[C@H]12
READING_UNIT: %
Mean accuracy (%), Table S12: 103.1

MOLECULE_SMILES: CC(C)(O/N=C(\C(=O)N[C@@H]1C(=O)N2C(C(=O)[O-])=C(C[n+]3ccccc3)CS[C@H]12)c1csc(N)n1)C(=O)O
READING_UNIT: %
Mean accuracy (%), Table S12: 105.0

Consider the additional compound presented here.
# input Using the record for CN(C)c1cc(NC(=O)CNC(C)(C)C)c(O)c2c1C[C@H]1C[C@H]3[C@H](N(C)C)C(O)=C(C(N)=O)C(=O)[C@@]3(O)C(O)=C1C2=O , report its Mean accuracy (%), Table S12.
# output 102.8

====

Test: Autosampler stability at 4 °C of extracted antibiotic-spiked plasma/CAMHB samples
Details: plasma extracted samples, 7 h autosampler 4 °C; LQC: nominal 1 mg/L (levofloxacin, avibactam 0.5; fosfomycin 10)
Mean accuracy (%), Table S7 by entry:
Please state the figure in %; there is no need to write the unit.

# input Request the reported Mean accuracy (%), Table S7 associated with C[C@@H]1O[C@@H]1P(=O)(O)O
# output 104.5

# input Form field: reported Mean accuracy (%), Table S7 of CCN1CCN(C(=O)N[C@@H](C(=O)N[C@@H]2C(=O)N3[C@@H]2SC(C)(C)[C@@H]3C(=O)O)c2ccccc2)C(=O)C1=O
# output 109.5

# input What Mean accuracy (%), Table S7 value was documented for this compound, C[C@H]1COc2c(N3CCN(C)CC3)c(F)cc3c(=O)c(C(=O)O)cn1c23 ?
# output 110.7

# input Consider the compound CO/N=C(\C(=O)N[C@@H]1C(=O)N2C(C(=O)[O-])=C(C[N+]3(C)CCCC3)CS[C@H]12)c1csc(N)n1 [Cefepime, cefepime] and give its measured Mean accuracy (%), Table S7.
# output 94.2

====

Test: Long-term storage stability of antibiotics in combination with fosfomycin spiked in plasma/CAMHB (−30 °C, −80 °C)
Format: physicochemical
Details: plasma, combination with fosfomycin, 2 weeks at -30 °C; LQC (nominal as E13)
Measured Mean accuracy (%), Table S11, listed per entry.
State just the number; it will be interpreted in %.

COMPOUND: CCN1CCN(C(=O)N[C@@H](C(=O)N[C@@H]2C(=O)N3[C@@H]2SC(C)(C)[C@@H]3C(=O)O)c2ccccc2)C(=O)C1=O [Piperacillin, piperacillin]
READING_UNIT: %
Mean accuracy (%), Table S11: 112.6

# input # query: Mean accuracy (%), Table S11 of entry CO/N=C(\C(=O)N[C@@H]1C(=O)N2C(C(=O)[O-])=C(C[N+]3(C)CCCC3)CS[C@H]12)c1csc(N)n1 [Cefepime, cefepime]
# output 98.6

# input Find the recorded Mean accuracy (%), Table S11 belonging to C[C@H]1[C@H](NC(=O)/C(=N\OC(C)(C)C(=O)O)c2csc(N)n2)C(=O)N1S(=O)(=O)O [Aztreonam, aztreonam] and report it.
# output 103.1

====

Test: Long-term storage stability of antibiotics in combination with fosfomycin spiked in plasma/CAMHB (−30 °C, −80 °C)
Type: physicochemical
Settings: CAMHB, combination with fosfomycin, 4 weeks at -30 °C; HQC (nominal as E15)
RECORDED_METRIC: Mean accuracy (%), Table S16
Return type: number; implicit unit %.

MOLECULE: C[C@@H](O)[C@H]1C(=O)N2C(C(=O)O)=C(S[C@@H]3CN[C@H](CNS(N)(=O)=O)C3)[C@H](C)[C@H]12 [Doripenem, doripenem]
RECORDED_METRIC: Mean accuracy (%), Table S16
MEASURED_NUMBER: 64.1

MOLECULE: C[C@@H](O)[C@H]1C(=O)N2C(C(=O)O)=C(S[C@@H]3CN[C@H](C(=O)N(C)C)C3)[C@H](C)[C@H]12 [Meropenem, meropenem]
RECORDED_METRIC: Mean accuracy (%), Table S16
MEASURED_NUMBER: 66.1

MOLECULE: C[C@H]1[C@H](NC(=O)/C(=N\OC(C)(C)C(=O)O)c2csc(N)n2)C(=O)N1S(=O)(=O)O [Aztreonam, aztreonam]
RECORDED_METRIC: Mean accuracy (%), Table S16
MEASURED_NUMBER: 92.5

# input Quick one: Mean accuracy (%), Table S16 of CN(C)c1cc(NC(=O)CNC(C)(C)C)c(O)c2c1C[C@H]1C[C@H]3[C@H](N(C)C)C(O)=C(C(N)=O)C(=O)[C@@]3(O)C(O)=C1C2=O [Tigecycline, tigecycline] ?
# output 91.2
